# STUDY_SYSTEM: AhR (Homo sapiens, UniProt P35869)
# Construct: One of the resultant clones was named HEK-XRE 11.1, and used in the reporter gene assays; endogenous in cells; host or cells: HEK-XRE 11.1 (HEK cells stably carrying the AhR-responsive luciferase reporter X4-4.27 and phRL-CMV)
# Sequence (P35869 11-848): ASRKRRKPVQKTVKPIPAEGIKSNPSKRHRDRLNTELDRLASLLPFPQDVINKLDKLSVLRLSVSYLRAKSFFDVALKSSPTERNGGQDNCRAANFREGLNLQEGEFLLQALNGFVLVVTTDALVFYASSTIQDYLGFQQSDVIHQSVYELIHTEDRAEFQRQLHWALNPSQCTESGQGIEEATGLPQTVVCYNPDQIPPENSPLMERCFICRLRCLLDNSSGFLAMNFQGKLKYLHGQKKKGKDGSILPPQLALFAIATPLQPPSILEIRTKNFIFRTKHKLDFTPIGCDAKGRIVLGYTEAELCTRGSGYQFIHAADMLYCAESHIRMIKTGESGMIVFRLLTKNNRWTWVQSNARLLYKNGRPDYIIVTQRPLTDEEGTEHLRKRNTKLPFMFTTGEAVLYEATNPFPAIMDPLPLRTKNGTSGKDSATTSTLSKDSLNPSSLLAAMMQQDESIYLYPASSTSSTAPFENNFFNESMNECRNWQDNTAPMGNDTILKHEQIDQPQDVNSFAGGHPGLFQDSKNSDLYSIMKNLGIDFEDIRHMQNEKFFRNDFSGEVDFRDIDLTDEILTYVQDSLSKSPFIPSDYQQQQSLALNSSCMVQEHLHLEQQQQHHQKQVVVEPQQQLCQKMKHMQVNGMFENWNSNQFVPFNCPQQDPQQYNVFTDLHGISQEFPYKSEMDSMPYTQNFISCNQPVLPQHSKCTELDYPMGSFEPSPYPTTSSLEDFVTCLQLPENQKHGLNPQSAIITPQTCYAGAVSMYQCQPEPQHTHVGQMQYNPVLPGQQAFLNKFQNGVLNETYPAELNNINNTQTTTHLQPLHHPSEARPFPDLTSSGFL
# PROTOCOL_SUMMARY: Inhibition of AhR-mediated gene transcription (HEK-XRE 11.1 luciferase reporter, MeBIO induction)
# Format: cell-based
# CONDITION_NOTES: HEK-XRE 11.1 cells, MeBIO 0.1 nM, luminescence after 24 hours; Table 1
MEASURE: IC50

See these solved cases before continuing.
| STRUCTURE_AS_SMILES | IC50 |
| --- | --- |
| CCc1ccc(NC(=O)c2sc3ncc(C(F)(F)F)cc3c2N)cc1 | < 50 nM |
| Nc1c(C(=O)Nc2ccc(F)cc2)sc2nc3c(cc12)CCCC3 | 50 to 500 nM |
| Cc1ccc2sc(C(=O)Nc3ccccc3)c(N)c2c1 | < 50 nM |

-- ask // fetch IC50; item: Nc1c(C(=O)Nc2ccc(F)c(Cl)c2)sc2ncc(C(F)(F)F)cc12 ; system: AhR (Homo sapiens, UniProt P35869)
-- reply < 50 nM
